# experimental.target: CFTR-mediated chloride transport (Homo sapiens)
# Type: cell-based
# experimental.conditions: enteroid cells incubated with test compound 18-24 hours; acute 10 μM forskolin and 300 nM Compound III; % of chloride transport with 3 μM Compound A, 3 μM Compound II and 300 nM acute Compound III triple combination control
# Description: Base medium (ADF+++) consisted of Advanced DMEM/Ham's F12, 2 mM Glutamax, 10 mM HEPES, […] penicillin/streptomycin. […] Enteroid cells were incubated with test compound in IEMM for 18-24 hours at 37° C., 95% humidity and 5% CO2. […] Chloride transport was initiated by addition of Chloride Free Dye Stimulation Solution and the fluorescence signal was read for 15 min. […]
test.readout: Max. Activity

Worked examples follow.
CC(C)(C)CCC[C@H]1CCN(c2ccc3c(n2)N2C[C@@H](CCCNc4cccc(n4)S(=O)(=O)NC3=O)CC2(C)C)C1=O (single isomer, unassigned) [Compound 146]; +++ (+++ is >60%)
CC1(C)C[C@@H]2CCCNc3nc(ccc3O)S(=O)(=O)NC(=O)c3ccc(-n4ccc(OCCCC5(C(F)(F)F)CC5)n4)nc3N1C2; ++ (++ is 30-60%)
[2H]c1ccc2nc1NCCC[C@@H]1CN(c3nc(-n4ccc(OCCC5C6(CC6)C56CC6)n4)ccc3C(=O)NS2(=O)=O)C(C)(C)C1; +++ (+++ is >60%)
CC1(C)C[C@H]2CCCNc3cccc(n3)S(=N)(=O)NC(=O)c3ccc(-n4ccc(OCCC5(C(F)(F)F)CC5)n4)nc3N1C2 (single isomer, unassigned) [Compound 266]; ++ (++ is 30-60%)
CC1(C)C[C@@H]2CCCNc3cccc(n3)S(=O)(=O)NC(=O)c3ccc(N4CCN(C56CC7CC(CC(C7)C5)C6)C4=O)nc3N1C2; + (+ is <30%)

With those in mind, consider the next compound.
What Max. Activity appears in the records for this compound with CFTR-mediated chloride transport (Homo sapiens)? CC1(C)CC2CCCCOc3ccc(cn3)S(=O)(=O)NC(=O)c3ccc(-n4ccc(OCCC5(C(F)(F)F)CC5)n4)nc3N1C2 (stereo not drawn)
+ (+ is <30%)

---

# experimental.target: CFTR-mediated chloride transport (Homo sapiens)
# Format: cell-based
# experimental.conditions: enteroid cells incubated with test compound 18-24 hours; acute 10 μM forskolin and 300 nM Compound III; % of chloride transport with 3 μM Compound A, 3 μM Compound II and 300 nM acute Compound III triple combination control
test.readout: Max. Activity

CC1(C)C[C@@H]2CCCNc3cccc(n3)S(=O)(=O)NC(=O)c3ccc(N4CC5CCCCN5C4=O)nc3N1C2 (stereo partly drawn); + (+ is <30%)
Cc1c2cnn1CCCC1CN(c3nc(-n4ccc(OCC(C)(C)C(F)(F)F)n4)ccc3C(=O)NS2(=O)=O)C(C)(C)C1 (single isomer, unassigned) [Compound 288]; + (+ is <30%)

---

A collection of molecules and their measured EC50
# experimental.target: CFTR-mediated chloride transport (Homo sapiens, UniProt P13569)
# Sequence (P13569 whole entry, looked up): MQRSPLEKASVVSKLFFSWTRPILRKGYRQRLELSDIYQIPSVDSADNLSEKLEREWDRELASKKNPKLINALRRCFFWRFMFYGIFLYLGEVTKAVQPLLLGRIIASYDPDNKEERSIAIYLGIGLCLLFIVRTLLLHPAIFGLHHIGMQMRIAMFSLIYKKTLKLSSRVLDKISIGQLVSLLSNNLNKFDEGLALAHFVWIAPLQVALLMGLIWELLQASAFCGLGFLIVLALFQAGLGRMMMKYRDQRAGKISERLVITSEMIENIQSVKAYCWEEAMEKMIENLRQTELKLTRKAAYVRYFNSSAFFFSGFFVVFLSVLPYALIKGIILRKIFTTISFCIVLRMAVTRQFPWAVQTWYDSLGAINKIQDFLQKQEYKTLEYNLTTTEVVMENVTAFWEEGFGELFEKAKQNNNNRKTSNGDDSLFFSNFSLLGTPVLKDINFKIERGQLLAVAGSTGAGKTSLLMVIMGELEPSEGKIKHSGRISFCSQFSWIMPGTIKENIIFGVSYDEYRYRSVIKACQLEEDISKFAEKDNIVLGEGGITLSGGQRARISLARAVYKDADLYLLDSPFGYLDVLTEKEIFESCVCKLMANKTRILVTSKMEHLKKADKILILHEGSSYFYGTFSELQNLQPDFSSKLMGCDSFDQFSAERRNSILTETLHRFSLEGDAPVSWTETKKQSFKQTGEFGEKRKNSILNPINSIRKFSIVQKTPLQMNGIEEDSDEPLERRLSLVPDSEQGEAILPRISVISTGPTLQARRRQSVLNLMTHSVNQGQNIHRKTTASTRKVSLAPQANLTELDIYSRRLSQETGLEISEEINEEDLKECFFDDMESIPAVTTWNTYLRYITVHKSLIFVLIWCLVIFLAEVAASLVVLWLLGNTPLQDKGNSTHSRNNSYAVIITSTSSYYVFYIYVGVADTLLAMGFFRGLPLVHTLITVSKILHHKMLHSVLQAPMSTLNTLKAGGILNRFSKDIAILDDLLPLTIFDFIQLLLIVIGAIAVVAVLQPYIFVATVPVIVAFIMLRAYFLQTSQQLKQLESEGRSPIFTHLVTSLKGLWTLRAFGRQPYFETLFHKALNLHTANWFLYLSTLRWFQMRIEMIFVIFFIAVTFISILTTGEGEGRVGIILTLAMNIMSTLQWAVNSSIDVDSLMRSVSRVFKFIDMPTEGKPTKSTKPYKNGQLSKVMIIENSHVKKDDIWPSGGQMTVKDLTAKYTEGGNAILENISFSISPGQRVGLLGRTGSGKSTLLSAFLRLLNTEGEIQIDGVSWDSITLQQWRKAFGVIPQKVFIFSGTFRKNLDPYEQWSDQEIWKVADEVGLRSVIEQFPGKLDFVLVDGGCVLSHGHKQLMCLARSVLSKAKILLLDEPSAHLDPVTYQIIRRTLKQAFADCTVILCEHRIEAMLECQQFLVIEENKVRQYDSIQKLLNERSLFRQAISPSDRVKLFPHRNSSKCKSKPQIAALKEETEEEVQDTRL
# experimental.conditions: enteroid cells incubated with test compound 18-24 hours; acute 10 μM forskolin and 300 nM Compound III

// known answers, use as guide
CC1(C)CC2CCCNc3cccc(n3)S(=O)(=O)NC(=O)c3ccc(-n4ccc(OCCC(C5CC5)C5CC5)n4)nc3N1C2 (stereo not drawn); < 1 µM
C[C@@H]1CC[C@H]2CN(c3nc(N4CCN(CCC(C)(C)C)C4=O)ccc3C(=O)NS(=O)(=O)c3cccc(n3)N1)C(C)(C)C2 (single isomer, unassigned) [Compound 216]; < 1 µM

So what does the record say about EC50 for CC1(C)C[C@H]2CCNc3cccc(n3)S(=O)(=O)NC(=O)c3ccc(-n4ccc(OCCC5(C(F)(F)F)CC5)n4)nc3N1C2 (single isomer, unassigned) [Compound 26] ?
< 1 µM

---

# experimental.target: CFTR-mediated chloride transport (Homo sapiens, UniProt P13569)
# Assay type: cell-based
# experimental.conditions: enteroid cells incubated with test compound 18-24 hours; acute 10 μM forskolin and 300 nM Compound III; % of chloride transport with 3 μM Compound A, 3 μM Compound II and 300 nM acute Compound III triple combination control
test.readout: Max. Activity

CC1(C)C[C@@H]2CCCNc3cccc(n3)S(=O)(=O)NC(=O)c3ccc(N4CC[C@H](OCCC5(C(F)(F)F)CC5)C4=O)nc3N1C2 (single isomer, unassigned) [Compound 172]; ++ (++ is 30-60%)
CC1(C)C[C@@H]2CCCNc3cccc(n3)S(=O)(=O)NC(=O)c3ccc(N4CCN(CC56CC7CC(CC(C7)C5)C6)C4=O)nc3N1C2; ++ (++ is 30-60%)
CC1(C)C[C@H]2CCCCn3cc(cn3)S(=O)(=O)NC(=O)c3ccc(-n4ccc(OCCC5(C(F)(F)F)CC5)n4)nc3N1C2 (single isomer, unassigned) [Compound 135]; +++ (+++ is >60%)
C[C@@H]1CC[C@H]2CN(c3nc(-n4ccc(OCCC5(C(F)(F)F)CC5)n4)ccc3C(=O)NS(=O)(=O)c3cccc(n3)N1)C(C)(C)C2 (single isomer, unassigned) [Compound 61]; +++ (+++ is >60%)

---

# experimental.target: CFTR-mediated chloride transport (Homo sapiens)
# Assay type: cell-based
# experimental.conditions: enteroid cells incubated with test compound 18-24 hours; acute 10 μM forskolin and 300 nM Compound III; % of chloride transport with 3 μM Compound A, 3 μM Compound II and 300 nM acute Compound III triple combination control
test.readout: Max. Activity

Reference set (4 entries):
CC1(C)C[C@H]2CNc3cccc(n3)S(=O)(=O)NC(=O)c3ccc(-n4ccc(OCCC5(C(F)(F)F)CC5)n4)nc3N1C2 (single isomer, unassigned) [Compound 24]; + (+ is <30%)
CN1CCC[C@H]2CN(c3nc(-n4ccc(OCCC5(C(F)(F)F)CC5)n4)ccc3C(=O)NS(=O)(=O)c3cccc1n3)C(C)(C)C2 (single isomer, unassigned) [Compound 138]; + (+ is <30%)
CC1(C)C[C@@H]2CCCNc3cccc(n3)S(=O)(=O)NC(=O)c3ccc(N4CC[C@H](CCC5C6(CC6)C56CC6)C4=O)nc3N1C2 (single isomer, unassigned) [Compound 177]; ++ (++ is 30-60%)
CC1(C)CC2CN1c1nc(-n3ccc(OCCC4(C(F)(F)F)CC4)n3)ccc1C(=O)NS(=O)(=O)c1ccnn1CCO2 (stereo not drawn); + (+ is <30%)

Kindly review the next molecule as well.
Which Max. Activity value is on record for CC1(C)CC2CCCNc3cccc(n3)S(=O)(=O)NC(=O)c3ccc(-n4ccc(O)n4)nc3N1C2 (stereo not drawn) ?
++ (++ is 30-60%)

---

# experimental.target: CFTR-mediated chloride transport (Homo sapiens)
# experimental.conditions: enteroid cells incubated with test compound 18-24 hours; acute 10 μM forskolin and 300 nM Compound III
The entries below come with measured EC50 values attached.

Past entries and their recorded results:
CC1(C)C[C@H]2CCCNc3cccc(n3)S(=O)(=O)NC(=O)c3ccc(-n4ccc(OCCC5C6(CC6)C56CC6)n4)nc3N1C2; < 1000 nM
CC1(C)C[C@H]2CCCCc3ccc(cc3)S(=O)(=O)NC(=O)c3ccc(-n4ccc(OCCC5(C(F)(F)F)CC5)n4)nc3N1C2 (single isomer, unassigned) [Compound 55]; < 1000 nM
CC1(C)C[C@H]2CNc3cccc(n3)S(=O)(=O)NC(=O)c3ccc(-n4ccc(OCCC5(C(F)(F)F)CC5)n4)nc3N1C2 (single isomer, unassigned) [Compound 25]; < 1000 nM
CC1(C)CC2CN1c1nc(-n3ccc(OCCC4(C(F)(F)F)CC4)n3)ccc1C(=O)NS(=O)(=O)c1ccn(n1)CCO2 (racemic); 1000 to 3000 nM

Which EC50 is listed for CC1(C)C[C@H]2CCCn3ccc(n3)S(=O)(=O)NC(=O)c3ccc(N4CC[C@H](CCCC5(C(F)(F)F)CC5)C4=O)nc3N1C2 (single isomer, unassigned) [Compound 181] ?
1000 to 3000 nM

Which EC50 is listed for CC1(C)C[C@H]2CCCNc3cccc(n3)S(=O)(=O)NC(=O)c3ccc(-n4ccc(OCC5C6(CC6)C56CC6)n4)nc3N1C2 (single isomer, unassigned) [Compound 106] ?
< 1000 nM

So what's the measured EC50 for this one? CC1(C)C[C@H]2CCn3ccc(n3)S(=O)(=O)NC(=O)c3ccc(-n4ccc(OCCCC5(C(F)(F)F)CC5)n4)nc3N1C2 (single isomer, unassigned) [Compound 279]
< 1000 nM

Quick check: EC50 of CC1(C)C[C@@H]2CN1c1nc(-n3ccc(OCCC4(C(F)(F)F)CC4)n3)ccc1C(=O)NS(=O)(=O)c1cccc(n1)NCCO2 (single isomer, unassigned) [Compound 74] ?
1000 to 3000 nM

Field request: EC50 | item: Cc1c2cnn1CCCC[C@H]1CN(c3nc(-n4ccc(OCCC5(C(F)(F)F)CC5)n4)ccc3C(=O)NS2(=O)=O)C(C)(C)C1 (single isomer, unassigned) [Compound 80]
> 3000 nM
